# ASSAY TARGET: SERT (Rattus norvegicus)
# Sequence (P31652 whole entry): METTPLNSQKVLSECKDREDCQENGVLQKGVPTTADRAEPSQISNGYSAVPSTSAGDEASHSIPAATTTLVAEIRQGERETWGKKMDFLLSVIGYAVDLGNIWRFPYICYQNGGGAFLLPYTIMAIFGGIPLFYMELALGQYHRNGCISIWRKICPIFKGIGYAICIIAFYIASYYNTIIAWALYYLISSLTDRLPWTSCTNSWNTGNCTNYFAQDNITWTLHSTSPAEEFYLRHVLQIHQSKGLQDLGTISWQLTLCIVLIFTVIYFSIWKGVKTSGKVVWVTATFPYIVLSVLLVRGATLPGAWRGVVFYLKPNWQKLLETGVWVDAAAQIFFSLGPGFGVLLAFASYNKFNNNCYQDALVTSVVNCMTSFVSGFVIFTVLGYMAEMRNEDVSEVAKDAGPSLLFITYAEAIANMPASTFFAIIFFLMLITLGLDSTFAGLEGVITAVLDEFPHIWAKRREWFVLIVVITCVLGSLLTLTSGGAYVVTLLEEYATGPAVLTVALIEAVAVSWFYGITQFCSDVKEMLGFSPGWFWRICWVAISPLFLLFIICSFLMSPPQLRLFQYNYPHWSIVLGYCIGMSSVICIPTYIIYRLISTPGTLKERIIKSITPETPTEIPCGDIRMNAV
# TEST METHOD NOTES: Synaptosomal [3H]5-HT uptake, rat striatal synaptosomes

# SMILES INPUT, Ki / µM
rows = [
    ("COc1ccc(CCCN[C@H](C)Cc2ccccc2)cc1", 5.55),
]

---

# ASSAY TARGET: DAT (Rattus norvegicus, UniProt P23977)
# Sequence (P23977 whole entry): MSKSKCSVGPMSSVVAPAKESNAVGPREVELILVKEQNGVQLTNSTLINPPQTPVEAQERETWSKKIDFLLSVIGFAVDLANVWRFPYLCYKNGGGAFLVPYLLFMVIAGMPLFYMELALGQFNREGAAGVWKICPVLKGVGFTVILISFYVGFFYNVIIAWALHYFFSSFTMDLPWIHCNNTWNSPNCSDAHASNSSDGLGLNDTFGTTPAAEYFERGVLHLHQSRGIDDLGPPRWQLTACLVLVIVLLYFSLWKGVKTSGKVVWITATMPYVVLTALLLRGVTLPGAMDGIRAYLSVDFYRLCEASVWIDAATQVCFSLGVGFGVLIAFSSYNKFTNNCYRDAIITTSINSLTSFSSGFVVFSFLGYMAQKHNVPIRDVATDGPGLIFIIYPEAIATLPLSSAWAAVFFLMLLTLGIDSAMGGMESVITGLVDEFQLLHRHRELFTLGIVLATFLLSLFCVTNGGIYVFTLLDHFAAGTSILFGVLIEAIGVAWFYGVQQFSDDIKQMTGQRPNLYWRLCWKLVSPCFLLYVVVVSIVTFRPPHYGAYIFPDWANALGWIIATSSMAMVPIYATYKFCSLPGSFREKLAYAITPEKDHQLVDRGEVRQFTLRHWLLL
# TEST METHOD NOTES: Synaptosomal [3H]DA uptake, rat striatal synaptosomes
pKi: −log10 of the molar value.
MEASURED ATTRIBUTE: pKi

# SMILES INPUT, REPORTED VALUE
measured = [
    ("COc1ccc(CCCN[C@H](C)Cc2ccccc2)cc1", 5.60),
]
